target: Human Factor P (human, UniProt P27918 29-469); assay: cell-based or functional assay
Sequence (P27918 29-469 limits assumed): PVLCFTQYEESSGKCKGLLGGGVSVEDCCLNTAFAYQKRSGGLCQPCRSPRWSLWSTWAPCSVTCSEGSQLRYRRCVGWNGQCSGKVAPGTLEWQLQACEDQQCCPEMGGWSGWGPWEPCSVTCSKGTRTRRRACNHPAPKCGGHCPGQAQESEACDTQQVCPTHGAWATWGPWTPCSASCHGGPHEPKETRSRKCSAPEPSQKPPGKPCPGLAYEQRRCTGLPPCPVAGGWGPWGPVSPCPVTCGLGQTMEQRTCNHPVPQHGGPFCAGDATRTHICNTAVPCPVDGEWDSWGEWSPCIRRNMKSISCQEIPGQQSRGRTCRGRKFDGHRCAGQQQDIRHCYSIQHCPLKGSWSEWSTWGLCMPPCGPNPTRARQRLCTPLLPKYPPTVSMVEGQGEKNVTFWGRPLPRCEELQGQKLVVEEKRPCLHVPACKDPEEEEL
Measurement Label: Hemolytic assay IC50 (nM), 10% serum

NVS808 (Fab, V domains shown) VH: EVQLVQSGAEVKKPGSSVKVSCKASGGTFSSYAISWVRQAPGQGLEWMGRIIPIFGTANYAQKFQGRVTITADESTSTAYMELSSLRSEDTAVYYCARHGGYIFDSWGQGTLVTVSS VL: SYELTQPPSVSVAPGQTARISCSGDNLGSKYVDWYQQKPGQAPVLVIYSDNNRPSGIPERFSGSNSGNTATLTISGTQAEDEADYYCQTYTSGNNYLVFGGGTKLTVLG; 13.3 nM
NVS804 (Fab, V domains shown) VH: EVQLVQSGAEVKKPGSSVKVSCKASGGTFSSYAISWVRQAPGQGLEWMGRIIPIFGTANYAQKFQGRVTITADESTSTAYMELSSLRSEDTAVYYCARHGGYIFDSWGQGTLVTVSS VL: SYVLTQPPSVSVAPGKTARISCSGDNLGSKYVDWYQQKPGQAPVLVIYSDNNRPSGIPERFSGSNSGNTATLTISGTQAMDEADYYCATYDSSPRTEVFGGGTKLTVLG; 12.4 nM
